Just for reference, PubChem BioAssay (NCATS) is where these values come from.

- System: DFO2036
- Assay notes: qHTS profiling for inhibitors of Plasmodium falciparum proliferation (AID 504749); also: nearly all actives have a fitted effect of over 60% in size
- Measurement conditions: P. falciparum in erythrocytes, SYBR Green DNA, 72 h; series mostly up to 28.7 µM
- Method: NIH National Institute of Allergy and Infectious Diseases [NIAID] NIH Chemical Genomics Center [NCGC] […] Because mature erythrocytes lack DNA, only Plasmodium-derived DNA is detected. NCGC Assay Protocol Summary: The SYBR Green viability assay was adapted from a method described previously (Plouffe et al., 2008). […] The following morning, fluorescence intensity at 485(14) nm excitation and 535(25) nm emission wavelengths was measured on an EnVision (Perkin Elmer) plate reader. […]
Records with an inconclusive call do not appear. Activity calls are given as the source filed them. Calls follow the shape of the dose curve; as a rule, active = well fitted inhibition curve with a large enough effect; inconclusive = small, poorly fitted or top-dose-only effect; inactive = flat fitted curve, though single readings scatter.
Outcome codes: YES (active), NO (inactive)

# Compound, Assigned category
data = [
    ("CO[C@H]1/C=C/O[C@@]2(C)Oc3c(C)c(O)c4c(O)c(c(/C=N\\N5CCN(C6CCCC6)CC5)c(O)c4c3C2=O)NC(=O)/C(C)=C\\C=C\\[C@H](C)[C@H](O)[C@@H](C)[C@@H](O)[C@@H](C)[C@H](OC(C)=O)[C@@H]1C", "YES"),
    ("CC(C)C[C@H]1C(=O)N2CCCC2[C@]2(O)O[C@](NC(=O)[C@@H]3C=C4c5cccc6[nH]c(Br)c(c56)C[C@H]4N(C)C3)(C(C)C)C(=O)N12 (stereo partly drawn)", "YES"),
    ("COc1ccc(CCNC[C@@H](O)c2ccc(O)cc2)cc1OC", "NO"),
]

----------
- Assay notes: qHTS Assay for Lipid Storage Modulators (AID 1519)
- Measurement conditions: Drosophila S3 cells, BODIPY lipid droplet/cell ratio, laser cytometry; measured here: cell count channel max response; cells loaded with oleic acid
Results filed as inconclusive are left out.

# Smiles, Quantity unit, max response
records = [
    ("COCCNc1cc(-c2ccccc2CN(C)C)ncn1", "%", 21.8),
    ("COc1ccccc1CN1CC2(CCN(S(C)(=O)=O)CC2)C1", "%", 11.6),
    ("N#Cc1ccc(CN2CCCC3(CCN(C(=O)c4cccc(F)c4)CC3)C2)cc1", "%", 15),
    ("CN1CCC2(CC1)CCN(C(=O)c1cc(C(F)(F)F)cc(C(F)(F)F)c1)CC2", "%", -7.21),
    ("Cc1noc(C)c1C(=O)N1CCC[C@@]2(CCN(C(=O)NC(C)C)C2)C1", "%", 13.4),
    ("Cn1cccc1C(=O)N1CCC2(CCN(C(=O)Nc3cccc(F)c3)CC2)CC1", "%", 18.2),
]

----------
- Experimental system: Calcium and integrin-binding protein 1 (Homo sapiens)
- Assay notes: Primary qHTS for Identification of Calcium Integrin Binding Protein 1 (CIB1) Competitor (AID 1508620);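 also: GST tagged CIB1 binding a fluorescein labelled alphaIIb integrin peptide tracer; top concentration of the series differs between compounds; % is scaled to controls: 0 for no effect and ±100 for the full control effect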
- Measurement conditions: CIB1-GST / FITC-alphaIIb peptide fluorescence polarization; series mostly up to 114 µM
Records with an inconclusive call do not appear. Activity calls are given as the source filed them. Calls follow the shape of the dose curve; as a rule, active = well fitted inhibition curve with a large enough effect; inconclusive = small, poorly fitted or top-dose-only effect; inactive = flat fitted curve, though single readings scatter.

# Compound, outcome
rows = [
    ("O=C(Nc1ccc(-c2nc3ccccc3[nH]2)cc1)c1ccc(Cl)c(Cl)c1", "inactive"),
    ("Clc1cccc(CSc2nc3ncc(Br)cc3[nH]2)c1", "inactive"),
    ("CCOc1ccc(CCNC(=O)c2cc3ccccc3o2)cc1OCC", "inactive"),
    ("O=C(Nc1ccc(F)c(C(F)(F)F)c1)Nc1cccc(-c2ccncc2)n1", "inactive"),
    ("COCCNc1nc(C)nc2c1nc(-c1ccccc1)n2CCCN1CCCCC1C (stereo unspecified)", "inactive"),
    ("Cc1cccc(-n2cnc3cc(C(=O)N4CCC(c5ccccc5)CC4)ccc32)c1", "inactive"),
    ("Cc1ccc(Cn2ncc3c4sc(C)cc4n(C)c3c2=O)cc1", "inactive"),
    ("CC(=O)NC(c1cccs1)c1cc(Cl)c2ccccc2c1O (stereo unspecified)", "inactive"),
    ("Fc1ccccc1N1CCN(c2nc(-c3cccs3)nc3ccccc23)CC1", "inactive"),
    ("COc1ccc(CN(Cc2ccccc2)C(=O)c2ccccc2O)cc1", "inactive"),
    ("Cc1ccc(CNc2ncnc3ccc(-c4ccc(C(=O)N(C)C)o4)cc23)o1", "inactive"),
]
